- Target: human catalytic PDI A1 a domain (PDIa) (Homo sapiens)
- Construct: made in house; host or cells: Escherichia coli BL21-Gold (DE3)
- Sequence (P07237 18-134): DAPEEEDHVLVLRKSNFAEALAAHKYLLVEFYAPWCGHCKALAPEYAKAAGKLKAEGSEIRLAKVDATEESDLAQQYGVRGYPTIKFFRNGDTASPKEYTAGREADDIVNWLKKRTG
- Measurement description: Isothermal titration calorimetry (ITC) binding to PDIa
- Test context: Tables 6, 11, 12; read-out: Kd (nM), first value of two-site binding
- Method: All ITC experiments were carried out at 25° C. on MicoCal Auto-ITC200 system (GE Healthcare). […] ITC titration experiments were carried out at 25° C. with 19 injections, 2 μl per injection, and 180 seconds between each injection. The reference cell power was set to 5 μcal/sec. […] Gibbs free energy, ΔG, was calculated from equation ΔG=ΔH-TΔS. All other parameters, Ka, n, ΔH, ΔS, were determined directly from the titration data. […]
Test readout: Kd (nM)
Numeric only. Scale: nM

[in] Request the reported Kd associated with `O=c1c2ccccc2sn1Cc1ccccc1`
[out] 43

[in] Request the reported Kd associated with `O=c1c2ccccc2sn1-c1ccccc1`
[out] 8

###

- Measurement description: physchem
- Test context: organic solvent or mixture
Test readout: Solubility
Just so you know, I need the unit written after the number.

[in] Request the reported Solubility associated with `Cc1nnc2sn(CN3CCN(C(=O)C4CC4)CC3)c(=O)c2c1C`
[out] 100 mM

[in] Request the reported Solubility associated with `Cc1cc(C)c2c(=O)[nH]sc2n1`
[out] 100 mM

[in] Request the reported Solubility associated with `Cc1ccc2c(=O)n(CN3CCN(C(=O)C4CC4)CC3)sc2c1`
[out] 50 mM

[in] Request the reported Solubility associated with `O=c1c2ccccc2sn1CN1CC[C@@H](O)C1`
[out] 100 mM

[in] Request the reported Solubility associated with `O=c1c2ccccc2sn1CN1CCC(N2CCCCC2)CC1`
[out] 50 mM

[in] Request the reported Solubility associated with `O=C(C1CC1)N1CCN(Cn2sc3ncccc3c2=O)CC1`
[out] 50 mM

[in] Request the reported Solubility associated with `Cc1ccc2sn(CN3CCN(C(=O)C4CC4)CC3)c(=O)c2c1`
[out] 50 mM

[in] Request the reported Solubility associated with `O=c1c2cccnc2sn1CO`
[out] 100 mM

###

- Measurement description: physchem
- Test context: NMP, organic solvent or mixture
Test readout: Solubility (mM)
Numeric only. Scale: mM

[in] Request the reported Solubility associated with `Cc1nnc2sn(CN3CCN(Cn4sc5nnc(C)c(C)c5c4=O)CC3)c(=O)c2c1C`
[out] 1

[in] Request the reported Solubility associated with `O=c1c2cccnc2sn1CN1CCN(Cn2sc3ncccc3c2=O)CC1`
[out] 5

[in] Request the reported Solubility associated with `O=c1c2cccc(F)c2sn1CN1CCN(Cn2sc3c(F)cccc3c2=O)CC1`
[out] 5

[in] Request the reported Solubility associated with `Cc1nc2sn(CN3CCN(Cn4sc5nc(C)c(C)c(C)c5c4=O)CC3)c(=O)c2c(C)c1C`
[out] 2.5

[in] Request the reported Solubility associated with `Cc1cc(C)c2c(=O)n(CN3CCN(Cn4sc5nc(C)cc(C)c5c4=O)CC3)sc2n1`
[out] 5

###

- Target: human catalytic PDI A1 a domain (PDIa) (Homo sapiens)
- Construct: made in house; host or cells: Escherichia coli BL21-Gold (DE3)
- Measurement description: Isothermal titration calorimetry (ITC) binding to PDIa
- Test context: N/A = not active; read-out: ITC KD
pKd: −log10 of the molar value.
Label Fulfilled for high-side pKd (at or above 7) and Not fulfilled for low-side pKd (below it).

[in] Evaluate Cc1ccc2c(=O)[nH]sc2c1 [LC-60, 6-Methylbenzo[d]isothiazol-3(2H)-one] : pKd at minimum 7?
[out] Not fulfilled

[in] Evaluate Cc1ccc2s[nH]c(=O)c2c1 [LC-61, 5-Methylbenzo[d]isothiazol-3(2H)-one] : pKd at minimum 7?
[out] Not fulfilled

[in] Evaluate `Cc1nnc2sn(CN3CCN(C(=O)C4CC4)CC3)c(=O)c2c1C` : pKd at minimum 7?
[out] Fulfilled

[in] Evaluate `O=c1c2cccnc2sn1CCN1CCCCC1` : pKd at minimum 7?
[out] Fulfilled

[in] Evaluate `Cc1cc(C)c2c(=O)[nH]sc2n1` : pKd at minimum 7?
[out] Not fulfilled

[in] Evaluate `Cc1ccc2sn(CN3CCN(C(=O)C4CC4)CC3)c(=O)c2c1` : pKd at minimum 7?
[out] Not fulfilled

[in] Evaluate `O=C(C1CC1)N1CCN(Cn2sc3ncccc3c2=O)CC1` : pKd at minimum 7?
[out] Fulfilled

[in] Evaluate `O=c1c2cccc(F)c2sn1CN1CCN(Cn2sc3c(F)cccc3c2=O)CC1` : pKd at minimum 7?
[out] Not fulfilled

[in] Evaluate `Cc1ccc2c(=O)n(CN3CCN(C(=O)C4CC4)CC3)sc2c1` : pKd at minimum 7?
[out] Not fulfilled

[in] Evaluate `C[C@H](c1ccccc1)n1sc2ncccc2c1=O` : pKd at minimum 7?
[out] Fulfilled

[in] Evaluate `O=c1c2ccccc2sn1CN1CCN(Cn2sc3ccccc3c2=O)CC1` : pKd at minimum 7?
[out] Fulfilled

[in] Evaluate `O=c1c2cccnc2sn1CCN1CCOCC1` : pKd at minimum 7?
[out] Fulfilled

[in] Evaluate `Cc1nnc2s[nH]c(=O)c2c1C` : pKd at minimum 7?
[out] Fulfilled

Each recorded value in this set is attributed to patent US20220380383A1.
